The reported numbers originate from patent US20260209325A1.

# target_or_test_system: T1, human pro-myostatin (human, UniProt O14793 24-375, biotinylated (in the SPR assay))
# T1 construct: Disulfide-linked homodimer; also called proGDF8 (human)
# measurement_notes: SPR Biacore 8K, biotin-antigen captured
pKd: −log10 of the molar value.
Response key: Yes means pKd >= 10; No means pKd < 10.

1) Ab128 (antibody, human IgG4 S228P, kappa, V domains shown) VH: EVQLVESGGGLVQPGGSLRLSCTASGFTLSSYSMDWVRQAPGKGLEWVSYITGSGDTTYYADSVKGRFTISRDNAKNTLYLQMNSLRAEDTAVYYCARGFGWISGWAEDYFDYWGQGTLVTVSS VL: DIQMTQSPSSLSASVGDRVTITCQASQSVYSYLNWYQQKPGKAPKLLIYGASRLEGGVPSRFSGSGSGTDFTFTISSLQPEDIATYYCQQHSTDQRTFGGGTKVEIKR    No
2) Ab129 (antibody, human IgG4 S228P, kappa, V domains shown) VH: QVQLVQSGAEVKKPGASVKVSCKVSGFNYPRSAIHWVRQAPGKGLEWMGGINPSGEATIYAQKFQGRVTMTEDTSTDTAYMELSSLKSEDTAVYYCARDSSPQWLVTAGVYFYGMDVWGQGTTVTVSS VL: DIQMTQSPSSVSASVGDRVTITCRASQSISNWLAWYQQKPGKAPKLLIYHASTLQSGVPSRFSGSGSGTDFTLTISSLQPEDFANYYCQQYSSTPWTFGGGTKVEIKR    No

API: the following record is the query input.
Incoming: Is reported pKd greater than or equal to 10 here: Ab133 (antibody, human IgG4 S228P, kappa, V domains shown, human IgG4 in the EM experiment; also called Ab133 Human IgG4) VH: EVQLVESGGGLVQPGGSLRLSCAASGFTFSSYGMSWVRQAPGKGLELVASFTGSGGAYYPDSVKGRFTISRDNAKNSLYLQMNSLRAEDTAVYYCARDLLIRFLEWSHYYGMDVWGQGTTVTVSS VL: DIVMTQSPLSLPVTPGEPASISCRSSQSLLHSSGHNFLHWYLQKPGQSPQLLIYEVSNRVSGVPDRFSGSGSGTDFTLKISRVEAEDVGVYYCQQQTQYPGTFGGGTKVEIKR
Outgoing: Yes
